# Target: Rap guanine nucleotide exchange factor 3 (Homo sapiens) (UniProt O95398)
# Sequence (O95398 whole entry, looked up): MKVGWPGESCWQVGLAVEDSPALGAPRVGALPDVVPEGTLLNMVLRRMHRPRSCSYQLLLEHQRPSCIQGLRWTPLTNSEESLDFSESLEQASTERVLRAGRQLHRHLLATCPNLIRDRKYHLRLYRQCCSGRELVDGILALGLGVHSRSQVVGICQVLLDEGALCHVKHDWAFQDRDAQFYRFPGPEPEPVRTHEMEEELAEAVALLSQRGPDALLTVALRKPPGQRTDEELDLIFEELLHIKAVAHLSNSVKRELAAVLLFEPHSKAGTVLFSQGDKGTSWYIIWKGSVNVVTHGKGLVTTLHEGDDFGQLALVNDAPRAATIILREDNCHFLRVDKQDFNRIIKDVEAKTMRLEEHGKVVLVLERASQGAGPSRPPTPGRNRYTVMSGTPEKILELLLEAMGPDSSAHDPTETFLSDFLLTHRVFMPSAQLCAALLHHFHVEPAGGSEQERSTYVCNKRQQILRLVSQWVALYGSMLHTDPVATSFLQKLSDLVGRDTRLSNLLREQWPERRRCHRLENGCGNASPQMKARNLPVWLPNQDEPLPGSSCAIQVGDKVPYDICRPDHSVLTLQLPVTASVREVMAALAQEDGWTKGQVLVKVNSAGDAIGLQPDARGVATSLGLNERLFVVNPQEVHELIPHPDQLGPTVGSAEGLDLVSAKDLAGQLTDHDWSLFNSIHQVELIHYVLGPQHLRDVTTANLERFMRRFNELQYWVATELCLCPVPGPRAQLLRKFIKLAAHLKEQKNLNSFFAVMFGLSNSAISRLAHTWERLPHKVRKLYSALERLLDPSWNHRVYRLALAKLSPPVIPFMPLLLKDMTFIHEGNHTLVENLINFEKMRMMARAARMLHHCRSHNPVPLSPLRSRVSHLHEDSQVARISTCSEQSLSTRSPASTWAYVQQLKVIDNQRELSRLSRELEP
# Measurement description: Counterscreen qHTS for antagonist of cAMP-regulated guanine nucleotide exchange factor 3 (EPAC1) (AID 1645888);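 further: fluorescence loss as bound BODIPY-GDP is released from Rap1B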
# Reported conditions: Rap1B-BODIPY-GDP nucleotide exchange, fluorescence; series mostly up to 154 µM
Results filed as inconclusive are left out. Calls of active or inactive are those of the source. The call rests on the fitted dose curve; in most records, active means well fitted inhibition curve with a large enough effect; inconclusive means small, poorly fitted or top-dose-only effect; inactive means no such curve, though single readings can be large or run the other way.
Measurement type: activity change, negative = inhibition

>  <Compound>
Cc1ccc(N2CC(c3nc4ccccc4[nH]3)CC2=O)c(C)c1 (stereo not given)

>  <activity change, negative = inhibition>
inactive

$$$$
>  <Compound>
COc1cccc(NS(=O)(=O)c2ccc3c(c2)C2C=CCC2C(c2ccc(C(=O)O)cc2)N3)c1 (stereo not given)

>  <activity change, negative = inhibition>
inactive

$$$$
>  <Compound>
Cc1ccc(-n2nnnc2SCC(=O)NCC2(N3CCOCC3)CCCCC2)cc1

>  <activity change, negative = inhibition>
inactive

$$$$
>  <Compound>
Cn1c(N)c(C(=O)COC(=O)c2cc(-c3ccco3)nc3ccccc23)c(=O)n(C)c1=O

>  <activity change, negative = inhibition>
inactive

$$$$

Continue with the compound presented below.
For CCn1c(SCC(=O)c2ccc(O)c(O)c2)nnc1-c1ccccc1OC the compound record lists activity change, negative = inhibition as inactive
